assay: chemical genetic growth profiling, strain panel (AID 1159580);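 note: tested at 20 µM; growth read once vehicle control cultures reached saturation at 30 °C; 1 = growth at the plate median or of vehicle wells; lower values mean less growth of the strain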; conditions: S. cerevisiae deletion strains, growth OD, locus YDL074C, strain BRE1, active compounds read low
About 2,000 (36%) of roughly 5,500 compounds were called active. Another 18% or so got no clear call; they are omitted. Some of the results follow.
Recorded normalized growth values for a group of compounds are listed next.
# answer = number (no unit)

Examples with answers:
CC(C)=CCOc1cc2oc(=O)ccc2cc1O; 0.808
COc1cc2ccc(=O)oc2c(O)c1O; 1.05
COc1cc(O)c(C(C)=O)c(OC)c1; 1.04

Look up and report measured normalized growth for this entry: CC1=C2CCC3C(CC[C@]4(C)C(=O)CCC34)[C@@]2(C)CCC1=O (stereo partly specified) 0.915

Look up and report measured normalized growth for this entry: COc1c(O)cc(O)cc1O 1.06

Look up and report measured normalized growth for this entry: C[C@]12CCC3C(CC[C@H]4C[C@@H](Cl)CC[C@]34C)C1CCC2=O (stereo partly specified) 0.87

Look up and report measured normalized growth for this entry: COc1cc2ccc(=O)oc2c(OC)c1OC 1.03

###

experiment: chemical genetic growth profiling, strain panel (AID 1159580); details: S. cerevisiae deletion strains, growth OD, locus YLR268W, strain sec22, active compounds read low
The whole screen tested about 5,500 compounds, of which about 2,000 (36%) were called active. About 18% were inconclusive and are not listed. Some of the results follow.
Exam item: assign T to entries whose normalized growth is below 1 and F to entries at or above 1. Note that a value of exactly 1 receives F.

COc1cc(OC)cc(OC)c1; T
Cc1ncc([N+](=O)[O-])n1CCO; F
Cc1cc(O)c2c(c1O)C(=O)c1c(O)cc(C)c(O)c1C2=O; T

Now, please, on to the next compound.
Given CC1(C)C=Cc2c(cc3occ(-c4ccc5c(c4)OCO5)c(=O)c3c2O)O1 , is recorded normalized growth strictly lower than 1? T

###

experiment: chemical genetic growth profiling, strain panel (AID 1159580); details: S. cerevisiae deletion strains, growth OD, locus YNL175C, strain NOP13
The campaign covered roughly 5,500 compounds. About 2,000 (36%) were called active. About 18% were inconclusive and are not listed. Rule as the data show it: active = normalized growth mostly below about 0.91 (no sharp cut-off); inconclusive = no clear call, values can overlap the other calls; inactive = mostly above about 0.92. Some of the results follow.
Please reply with one of these outcomes: 1 for active, -1 for inactive

Solved cases below.
OCCN1CCN(CCCN2c3ccccc3Sc3ccc(Cl)cc32)CC1; -1
COc1ccc2[nH]c(I)c(CCNC(C)=O)c2c1; -1
CC(C)(C)[C@]1(O)CCN2C[C@H]3c4ccccc4CCc4cccc(c43)[C@@H]2C1; -1

In this assay, the call recorded for CN(C)c1nc(N(C)C)nc(N(C)C)n1 was what? -1

In this assay, the call recorded for NCCS was what? -1

In this assay, the call recorded for O=c1oc(Cl)c(Cl)c2ccccc12 was what? -1

In this assay, the call recorded for O=c1n(CCCN2CCN(c3cccc(Cl)c3)CC2)nc2ccccn12 was what? -1

In this assay, the call recorded for CCCN(CCC)[C@@H]1CCc2ccc(O)cc2C1 was what? -1

###

experiment: chemical genetic growth profiling, strain panel (AID 1159580); conditions: S. cerevisiae deletion strains, growth OD, locus YJR075W, strain HOC1, active compounds read low
About 2,000 (36%) of roughly 5,500 compounds were called active. About 18% were inconclusive and are not listed. Some of the results follow.
Exam item: assign Yes to entries whose normalized growth is below 1 and No to entries at or above 1. Note that a value of exactly 1 receives No.

Solved cases below.
N#CCCNc1cc(C(F)(F)F)cc(C(F)(F)F)c1; Yes
O=[N+]([O-])c1cc(C(F)(F)F)ccc1NCCCn1ccnc1; No

Given COc1cc(OC)c(-c2c(OC)cc(OC)cc2OC)c(OC)c1 , is recorded normalized growth strictly lower than 1? No

Given O=C(O)c1cc2cc(Cl)ccc2[nH]1 , is recorded normalized growth strictly lower than 1? No

Given Cc1cc(C)c(C(=O)NCCNc2ccc(C(F)(F)F)cc2[N+](=O)[O-])c(C)c1 , is recorded normalized growth strictly lower than 1? Yes

Given CCOc1ccc(Cc2nccc3cc(OCC)c(OCC)cc23)cc1OCC , is recorded normalized growth strictly lower than 1? Yes

Given Cc1ccc(S(=O)(=O)Oc2cc(=O)n(C)c3ccccc23)cc1 , is recorded normalized growth strictly lower than 1? Yes

Given CCC(=O)O[C@H]1CCC2C3CCc4cc(O)ccc4C3CC[C@@]21C (some centres undefined) , is recorded normalized growth strictly lower than 1? Yes

Given S=C(S)N1CCCC1 , is recorded normalized growth strictly lower than 1? Yes

###

Recorded normalized growth values for a group of molecules are listed next.
assay: chemical genetic growth profiling, strain panel (AID 1159580); conditions: S. cerevisiae deletion strains, growth OD, locus YFR003C, strain YPI1, active compounds read low
Among all 5,500 compounds or so, about 2,000 (36%) were called active. Another 18% or so got no clear call; they are omitted. Some of the results follow.
# answer = number (no unit)

Examples with answers:
CCOC(=O)C(NC(C)=O)(Nc1ccc(F)c(Cl)c1)C(F)(F)F (stereo not given); 0.992
O=C(OCc1ccc(Oc2ccc(Cl)cc2Cl)c([N+](=O)[O-])c1)c1ccc([N+](=O)[O-])o1; 0.985
CSc1nc(Sc2n[nH]c(-c3ccccc3)n2)cc(Sc2n[nH]c(-c3ccccc3)n2)n1; 0.99

Look up and report measured normalized growth for this entry: CCCCCc1ccc(S(=O)(=O)Nc2ncc(C)cc2Br)cc1 0.959

Look up and report measured normalized growth for this entry: N#C/C(=C\c1ccc(C(F)(F)F)cc1)c1ccc(O)cc1 0.971

###

assay: chemical genetic growth profiling, strain panel (AID 1159580);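 note: tested at 20 µM; growth read once vehicle control cultures reached saturation at 30 °C; 1 = growth at the plate median or of vehicle wells; lower values mean less growth of the strain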; details: S. cerevisiae deletion strains, growth OD, locus YNL250W, strain rad50
The whole screen tested about 5,500 compounds, of which about 2,000 (36%) were called active. Roughly 18% stayed inconclusive and do not appear here. Cut-off read from the data, not from the text of the source: active = normalized growth mostly below about 0.91 (no sharp cut-off); inconclusive = no clear call, values can overlap the other calls; inactive = mostly above about 0.92. Some of the results follow.
Please reply with one of these outcomes: active, inactive

Solved cases below.
CC(=O)N[C@@H](CC(=O)O)C(=O)O; inactive
COc1c2occc2cc2ccc(=O)oc12; inactive
CC(C)CCCC(C)C1CCC2C3CCC4CC(=O)CCC4(C)C3CCC12C (stereo unspecified); inactive
C[C@]12CCC3C(CC[C@H]4CC(=O)CC[C@]34C)C1CCC2=O (stereo partly specified); active

In this assay, the call recorded for Cn1cnc([N+](=O)[O-])c1Sc1ncnc2nc[nH]c12 was what? inactive

In this assay, the call recorded for CC1(C)S[C@@H]2[C@H](NC(=O)COc3ccccc3)C(=O)N2[C@H]1C(=O)O was what? inactive

###

Recorded normalized growth values for a group of molecules are listed next.
test: chemical genetic growth profiling, strain panel (AID 1159580);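 note: tested at 20 µM; growth read once vehicle control cultures reached saturation at 30 °C; 1 = growth at the plate median or of vehicle wells; lower values mean less growth of the strain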; conditions: S. cerevisiae deletion strains, growth OD, locus YKR091W, strain srl3, active compounds read low
Screen size: about 5,500 compounds; about 2,000 (36%) were called active. Another 18% or so got no clear call; they are omitted. The list shows a part of the results.
# answer = number (no unit)

Examples with answers:
CC(=O)O[C@H]1CC2CCC3C(CC[C@@]4(C)C3C[C@H]([N+]3(C)CCCCC3)[C@@H]4OC(C)=O)[C@@]2(C)C[C@@H]1[N+]1(C)CCCCC1 (stereo not given in full); 1.02
CCOC(=O)C1=C(C)NC(C)=C(C(=O)OC)C1c1cccc([N+](=O)[O-])c1 (stereo not given); 1
COc1ccc2ccc(=O)oc2c1CC=C(C)C; 0.926
CC1=C2CCC3C(CC[C@]4(C)C(=O)CCC34)[C@@]2(C)CCC1=O (stereo not given in full); 0.985

Look up and report measured normalized growth for this entry: O=C1c2ccc(O)c(O)c2C(=O)c2c(O)ccc(O)c21 0.757

Look up and report measured normalized growth for this entry: Cc1cc(O)c2c(c1O)C(=O)c1c(O)cc(C)c(O)c1C2=O 0.968

Look up and report measured normalized growth for this entry: CC(=O)N[C@@H](CC(=O)O)C(=O)O 1

Look up and report measured normalized growth for this entry: COc1cc(O)c(C(C)=O)c(OC)c1 0.998

Look up and report measured normalized growth for this entry: COc1ccc2c(=O)c(-c3cc4c(cc3OC)OCO4)coc2c1 1.01

Look up and report measured normalized growth for this entry: C=C1CC2C(CCC3(C)C(=O)CCC23)C2(C)C=CC(=O)C=C12 (stereo not given) 0.95

Look up and report measured normalized growth for this entry: O=C(O)CCCN1C(=O)c2cccc3cccc(c23)C1=O 1.01

Look up and report measured normalized growth for this entry: CCCCC/C=C\C/C=C\C/C=C\C/C=C\CCCC(=O)O 0.967

Look up and report measured normalized growth for this entry: O=c1[nH]cnc2nc[nH]c12 1.02

###

Recorded normalized growth values for a group of compounds are listed next.
experiment: chemical genetic growth profiling, strain panel (AID 1159580);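 note: tested at 20 µM; growth read once vehicle control cultures reached saturation at 30 °C; 1 = growth at the plate median or of vehicle wells; lower values mean less growth of the strain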; conditions: S. cerevisiae deletion strains, growth OD, locus YIL125W, strain kgd1, active compounds read low
The whole screen tested about 5,500 compounds, of which about 2,000 (36%) were called active. Not shown: some 18% with an inconclusive outcome. The list shows a part of the results.
# answer = number (no unit)

Examples with answers:
COc1cc(O)c(C)c(O)c1; 1.02
CC1(C)C[C@@H]2C(=O)CC[C@H]3O[C@]3(C)CC[C@H]21; 0.998
O=c1c(-c2ccc3c(c2)OCO3)coc2cc(O)ccc12; 0.993
CN(C)c1nc(N(C)C)nc(N(C)C)n1; 1.02
C[C@]12C=CC(=O)C=C1CCC1C2C(=O)C[C@@]2(C)C1CC[C@]2(O)C(=O)CO (stereo partly drawn); 0.993

Look up and report measured normalized growth for this entry: COc1cc(O)c(C(=O)c2ccccc2)c(OC)c1 0.981

Look up and report measured normalized growth for this entry: O=C1c2ccc(O)c(O)c2C(=O)c2c(O)ccc(O)c21 0.992

Look up and report measured normalized growth for this entry: c1ccc2c(c1)[nH]c1cnccc12 0.992
